B1: NP_116010.1 (parent)
chain: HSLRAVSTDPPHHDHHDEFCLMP

Variants of: B1
Experiment Summary: protein stability index of a GFP-peptide fusion (GPS, HEK-293T) (PSI 1-6); higher = more stable;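 note: lentivirally expressed fusion library, cells FACS-sorted into six equal-sized GFP/DsRed ratio bins, PSI computed from sequencing read fractions per bin weighted by bin number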
Test Context: c terminus: native
Quantity Name: protein stability index
Could you keep your reply to the number by itself?

>>> endpoint_result("H13W")
2.4
>>> endpoint_result("S2F")
2.24
>>> endpoint_result("A5M")
1.9
>>> endpoint_result("H13V")
2.33
>>> endpoint_result("H16C")
2.66

input: Dear colleague, I am looking for the recorded protein stability index of the following variant: L21K
output: 3.1

input: Another variant to look at: D9G
output: 2.42

input: Then what about the variant M22W ?
output: 2.78

input: Same again, this time with C20R
output: 4.76

input: Could you do the same for R4E , please?
output: 3.58

input: Here is the next variant: V6I
output: 2.27

input: Consider next the variant L3R in the same way.
output: 2.82

Hey, just so you know, these numbers are from the supplement of paper PMC10567573.
